Species on record: Rattus norvegicus
Experiment: Selectivity ratio of Ki for DAT in rat striatum to Ki for NET in rat cerebral cortex
Format: tissue-based
The label is YES for Ratio Ki below 0.4 and NO for Ratio Ki equal to or exceeding 0.4.

>>> assigned_category("O[C@H](CN[C@H]1CC[C@@H](C(c2ccccc2)c2ccccc2)OC1)c1ccccc1")
"YES"
>>> assigned_category("COc1cccc([C@@H](O)CN[C@H]2CC[C@@H](C(c3ccccc3)c3ccccc3)OC2)c1")
"YES"
>>> assigned_category("Oc1ccccc1CN[C@H]1CC[C@@H](C(c2ccccc2)c2ccccc2)OC1")
"NO"
>>> assigned_category("c1ccc(C(c2ccccc2)[C@@H]2CC[C@H](NCc3ccncc3)CO2)cc1")
"YES"

q: Hello, is Ratio Ki of the following compound strictly smaller than 0.4? Oc1cccc(CN[C@H]2CC[C@@H](C(c3ccccc3)c3ccccc3)OC2)c1
a: NO
